- Tested on: T-47D breast
- experimentNotes: NCI tumour cell line growth inhibition, 384-well format; in the data active means GI50 below about 0.43 µM; inactive means the rest
Reply using exactly one outcome from active, inactive

moleculeSmiles: Cc1c(C#N)cccc1-c1cc(-c2cn(Cc3cccc(C(C)(C)O)n3)nn2)nc(N)n1
systemName: T-47D breast
classLabel: inactive
--
moleculeSmiles: O=C(/C=C/c1cccnc1)NCCCCC1CCN(C(=O)c2ccccc2)CC1
systemName: T-47D breast
classLabel: active

Please let me know the test result on file for CC(=O)OC[C@H]1O[C@@H](n2ccc(=O)[nH]c2=O)[C@H](OC(C)=O)[C@@H]1OC(C)=O . inactive

Please let me know the test result on file for C#Cc1cccc(Nc2ncnc3cc(OCCOC)c(OCCOC)cc23)c1 . inactive

---

- System: SNB-75 CNS
- experimentNotes: NCI tumour cell line growth inhibition, 384-well format
attributeMeasured: TGI

See these solved cases before continuing.
moleculeSmiles: CC(=O)OC[C@H]1O[C@@H](n2ccc(=O)[nH]c2=O)[C@H](OC(C)=O)[C@@H]1OC(C)=O
systemName: SNB-75 CNS
TGI: > 100 µM
--
moleculeSmiles: Cc1c(C#N)cccc1-c1cc(-c2cn(Cc3cccc(C(C)(C)O)n3)nn2)nc(N)n1
systemName: SNB-75 CNS
TGI: > 100 µM
--
moleculeSmiles: NC(=O)c1cnc(N[C@@H]2CCCC[C@@H]2N)nc1Nc1cccc(-n2nccn2)c1
systemName: SNB-75 CNS
TGI: 3.23 µM

// below: TGI requested for another compound
Param request: TGI | system SNB-75 CNS | item C#Cc1cccc(Nc2ncnc3cc(OCCOC)c(OCCOC)cc23)c1 50.5 µM
